- Experiment description: Aqueous solubility
- Assay type: physicochemical
- Conditions used: pION's buffer, pH 7.4

Structure as smiles	Output unit	solubility
CCN1CCC[C@@H]1CNC(=O)c1ccc2c(c1)NC(=O)/C(=C/c1ccccc1F)S2	µg/mL	29.4

====

- Target or test system: UniProt Q8IKU0
- Experiment description: PfGluPho primary dose response assay, resazurin/diaphorase-coupled
- Type: biochemical
- Conditions used: Potency PfG6PD Primary Assay, Table 5, Ave. ± S.E.M.
pIC50: −log10 of the molar value.
Metric: pIC50

Compound	Metric	Measured value
CCCN(CCC)CCNC(=O)c1ccc2c(c1)NC(=O)/C(=C/c1ccc(C)cc1)S2 [Compound 27]	pIC50	< 4.10
COc1ccc(/C=C2\Sc3ccc(C(=O)NCCN(C)C)cc3NC2=O)cc1 [Compound 19]	pIC50	< 4.10
CCCN(CCC)CCNC(=O)c1ccc2c(c1)NC(=O)/C(=C/c1ccccc1)S2 [Compound 26]	pIC50	< 4.10

====

- Target or test system: PfGluPho (PfG6PD) (Plasmodium falciparum, UniProt Q8IKU0)
- Sequence (Q8IKU0 1-910): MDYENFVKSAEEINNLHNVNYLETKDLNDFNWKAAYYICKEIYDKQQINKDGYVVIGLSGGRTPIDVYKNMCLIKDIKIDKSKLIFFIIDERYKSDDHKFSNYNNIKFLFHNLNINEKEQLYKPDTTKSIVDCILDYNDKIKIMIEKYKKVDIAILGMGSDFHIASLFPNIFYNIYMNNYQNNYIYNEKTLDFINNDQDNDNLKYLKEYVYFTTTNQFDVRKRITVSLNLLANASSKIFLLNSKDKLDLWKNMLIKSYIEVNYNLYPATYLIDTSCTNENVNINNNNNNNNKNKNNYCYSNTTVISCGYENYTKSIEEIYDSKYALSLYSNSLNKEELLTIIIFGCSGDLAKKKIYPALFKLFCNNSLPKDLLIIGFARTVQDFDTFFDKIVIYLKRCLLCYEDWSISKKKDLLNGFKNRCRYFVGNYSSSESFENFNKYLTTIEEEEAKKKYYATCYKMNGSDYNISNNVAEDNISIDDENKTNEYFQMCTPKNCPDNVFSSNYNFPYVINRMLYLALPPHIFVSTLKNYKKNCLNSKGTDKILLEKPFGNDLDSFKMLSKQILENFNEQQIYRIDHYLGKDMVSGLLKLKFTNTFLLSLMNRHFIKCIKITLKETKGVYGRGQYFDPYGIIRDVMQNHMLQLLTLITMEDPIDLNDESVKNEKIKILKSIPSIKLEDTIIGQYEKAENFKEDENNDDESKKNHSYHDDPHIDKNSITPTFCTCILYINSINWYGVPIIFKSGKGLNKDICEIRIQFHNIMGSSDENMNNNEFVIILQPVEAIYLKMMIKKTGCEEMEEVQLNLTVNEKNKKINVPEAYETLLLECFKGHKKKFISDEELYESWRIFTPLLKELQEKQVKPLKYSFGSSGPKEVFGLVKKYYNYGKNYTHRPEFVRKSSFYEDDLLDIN
- Experiment description: PfGluPho primary dose response assay, resazurin/diaphorase-coupled
- Format: biochemical
- Conditions used: Potency PfG6PD Primary Assay, Table 4, Ave. ± S.E.M.

Compound	Target or test system	IC50
CC(C)(C)OC(=O)N1CCCC1CNC(=O)c1ccc2c(c1)NC(=O)/C(=C/c1ccccc1F)S2 (stereo not shown)	PfGluPho (PfG6PD) (Plasmodium falciparum, UniProt Q8IKU0)	> 80 µM

====

- Target or test system: PfGluPho (PfG6PD) (Plasmodium falciparum)
- Experiment description: PfGluPho primary dose response assay, resazurin/diaphorase-coupled
- Format: biochemical
- Conditions used: Potency PfG6PD Primary Assay, Table 6, Ave. ± S.E.M.
pIC50: −log10 of the molar value.
Measured pIC50 values are reported for all entries that follow.
Metric: pIC50

Compound	Measured value
COc1ccc(/C=C2\Sc3ccc(C(=O)NCCN4CCCCCC4)cc3NC2=O)cc1 [Compound 38]	< 4.10
CN(C)c1ccccc1CNC(=O)c1ccc2c(c1)NC(=O)/C(=C/c1ccccc1F)S2 [Compound 42]	< 4.10
COc1cccc(/C=C2\Sc3ccc(C(=O)NCCN4CCCCCC4)cc3NC2=O)c1 [Compound 37]	< 4.10
O=C1Nc2cc(C(=O)NCc3ccccc3)ccc2S/C1=C\c1ccccc1F [Compound 41]	< 4.10
O=C1Nc2cc(C(=O)NCCN3CCOCC3)ccc2S/C1=C\c1ccccc1F [Compound 34]	< 4.10

====

- Experiment description: Aqueous solubility
- Assay type: physicochemical
- Conditions used: pION's buffer, pH 5

Structure as smiles	solubility
CCN1CCC[C@@H]1CNC(=O)c1ccc2c(c1)NC(=O)/C(=C/c1ccccc1F)S2	> 126 µg/mL

====

- Experiment description: Aqueous solubility
- Type: physicochemical
- Conditions used: 1x PBS, pH 7.4

Structure as smiles	solubility [µg/mL]
CCN1CCC[C@@H]1CNC(=O)c1ccc2c(c1)NC(=O)/C(=C/c1ccccc1F)S2	71
